- System: ATCC 13880
- test method notes: Antibiotic susceptibility, disk method on L-agar; further: key: R—Resistant; I—Intermediate; S—Susceptible
- Assay type: cell-based, Serratia marcescens
- condition label: 25° C.
parameter measured: Antibiotic resistance of strain ATCC 13880

Consider the worked cases shown below.
compound	reading
CC[C@H]1OC(=O)[C@H](C)[C@@H](O[C@H]2C[C@@](C)(OC)[C@@H](O)[C@H](C)O2)[C@H](C)[C@@H](O[C@@H]2O[C@H](C)C[C@H](N(C)C)[C@H]2O)[C@](C)(O)C[C@@H](C)C(=O)[C@H](C)[C@@H](O)[C@]1(C)O [Erythromycin, erythromycin]	I
CC1(C)S[C@@H]2[C@H](NC(=O)[C@H](N)c3ccccc3)C(=O)N2[C@H]1C(=O)O [Ampicillin, ampicillin]	R
CN[C@H](CC(C)C)C(=O)N[C@H]1C(=O)N[C@@H](CC(N)=O)C(=O)N[C@H]2C(=O)N[C@H]3C(=O)N[C@H](C(=O)N[C@H](C(=O)O)c4cc(O)cc(O)c4-c4cc3ccc4O)[C@H](O)c3ccc(c(Cl)c3)Oc3cc2cc(c3O[C@@H]2O[C@H](CO)[C@@H](O)[C@H](O)[C@H]2O[C@H]2C[C@](C)(N)[C@H](O)[C@H](C)O2)Oc2ccc(cc2Cl)[C@H]1O [Vancomycin, vancomycin]	R
NC[C@H]1O[C@H](O[C@H]2[C@H](O)[C@@H](O[C@H]3O[C@H](CO)[C@@H](O)[C@H](N)[C@H]3O)[C@H](N)C[C@@H]2N)[C@H](O)[C@@H](O)[C@@H]1O [Kanamycin, kanamycin]	S
CN(C)[C@@H]1C(O)=C(C(N)=O)C(=O)[C@@]2(O)C(O)=C3C(=O)c4c(O)cccc4[C@@](C)(O)[C@H]3C[C@@H]12 [Tetracycline, tetracycline]	R

Now for a further compound.
Query: Consider the compound O=C(N[C@H](CO)[C@H](O)c1ccc([N+](=O)[O-])cc1)C(Cl)Cl [Chloramphenicol, chloramphenicol] . State its measured Antibiotic resistance of strain ATCC 13880.
Response: I
